System: PriA–SSB C-terminal tail interaction (Klebsiella pneumoniae)
Assay: blocks PriA binding to SSB C-terminal tail, primary screen, biochemical, AlphaScreen (AID 1272365);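 also: plate controls were negative control peptide for no effect and reference peptide for full effect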
Details: AlphaScreen SSBct-PriA binding, biotinylated peptide; at 33 µM, active compounds read high
Screen size: about 430,000 compounds; about 2,600 (0.6%) were called active. The sample as a whole holds a higher share of actives than the screen did.

| compound | inhibition [%] |
| --- | --- |
| N#Cc1nc(-c2cccc3ccccc23)oc1N | -28.7 |
| COC(=O)/C=C1\SC(=NNC(=O)c2ccccc2)NC1=O | -6.67 |
| Cc1cc(OCC(=O)NC2CCN(C)CC2)ccc1[N+](=O)[O-] | -23 |
| CCCS(=O)(=O)N1CCc2ccc(NC(=O)c3ccc(Br)o3)cc2C1 | -14 |
| CC1CCN(c2oc(-c3ccccc3F)nc2C#N)CC1 | 42.8 |
| O=C(NCC#CCOc1ccc2c(c1)OCO2)Nc1ccccc1C(F)(F)F | -21 |
| O=C(C1CCCC1)N1CCc2ccc(NS(=O)(=O)CCc3ccccc3)cc21 | 5 |
| Brc1ccc(-c2nn[nH]n2)cc1 | -6.63 |
| O=C(c1ccccc1)c1sc(NC(=O)c2cc(-c3ccccc3)nc3ccccc23)nc1-c1ccccc1 | 10 |
| COCCN1CCCc2ccc(NC(=O)c3cccc(OC)c3)cc21 | 53 |
| COc1ccc(OC)c(Nc2nc(CC(=O)N3CCc4ccccc43)cs2)c1 | 12 |
| COC(=O)c1ccc(C=NNC(=O)CNc2cccc(C)c2)cc1 | -5.68 |
| Cc1ccc(Nc2cc(C)nc3c(C)ccc([N+](=O)[O-])c23)cc1 | 106 |
| Cn1ccnc1SCC1CCN(C(=O)c2nc3ccccc3s2)CC1 | 39 |
| COc1ccc2oc(-c3csc(NC(=O)c4ccc(N5C(=O)CCC5=O)cc4)n3)cc2c1 | 6 |
| Nn1c(SCC(=O)NC2CCCCC2)nnc(CCC(=O)O)c1=O | -5 |
| CC(C)Sc1ccc(C(=O)Nc2nc(-c3ccccn3)cs2)cc1 | 50.6 |
| COc1cccc(NC(=O)C2C(c3ccccc3)C2(Cl)Cl)c1 (stereo unspecified) | -12.2 |
| O=C(NCCc1ccoc1)C(=O)Nc1ccc(F)cc1F | 8 |
| COc1cc(CO)ccc1OCC(=O)Nc1cccc2ccccc12 | -4.4 |
| C[C@H](O)CN1CCN(C(=O)c2nc3ccccc3s2)CC1 | -1 |
| COc1ccc(C)cc1NC(=O)Cc1csc(NS(=O)(=O)c2ccccc2)n1 | 6 |
| COc1cc(NS(=O)(=O)CCc2ccccc2)ccc1N1CCCC1=O | -16 |
| COc1ccc(OC)c(Nc2nc(CC(=O)N3CCN(c4ncccn4)CC3)cs2)c1 | 19 |
| COc1ccc(-c2nnc(SCC(=O)Nc3cccnc3Cl)n2C)cc1 | 2.83 |
| O=S(=O)(CCc1ccccc1)NCC(O)c1ccoc1 (stereo unspecified) | -25 |

The values you see were collected from PubChem BioAssay AID1272365.
